Compiled from multiple publications: IC50 readings for IRAK4 (Homo sapiens (Human)).

>>> meas_value("Cn1cc(-c2cccc(C(=O)Nc3nc(CCCC(=O)N4CCN(C5CC5)CC4)cn3-c3ccccc3)c2)cn1")
"< 50 nM"
>>> meas_value("Nc1cncc(-c2ccc3cnc(-c4cccc(C(F)(F)F)n4)n3c2)c1")
"< 100 nM"
>>> meas_value("O=C(Nc1nc(CCCCCC(=O)N2CCCCCC2)cn1-c1ccccc1)c1cccc(-c2ccc3scnc3c2)c1")
"> 100 nM"

Here is another compound to look at.
What reported IC50 corresponds to "CC1(C)OC(=O)c2ccc(Nc3ncc(C4=NCC5(CCOCC5)O4)c(N[C@H](CO)c4ccccc4)n3)cc21" on IRAK4 (Homo sapiens (Human))?
50 to 250 nM
